Target: T1, Sulfotyr fibrinogen γ peptide (not fully specified; Y8 and Y12 sulfated (SO3); C-terminal biotin)
T1 construct: also called Fibrinogen gamma peptide; human sulfotyrosinylated fibrinogen peptide
T1 peptide: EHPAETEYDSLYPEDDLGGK
Assay: ELISA, 50 nM mAb
measuredQuantity: binding normalized to PSGL-1
Respond with the number and no other words.

| binder | endpointResult |
| --- | --- |
| 03D01 (antibody, IgG4, V domains shown) VH: EVQLVQSGGGLVQPGGSLRLSCAATGFTVSRNYMTWVREAPGKGLEWVAGIYKSGTTSYIESVKGRFTISRDNSKNTLYLEMSRLRAEDTAVYYCAKSTSTWGQGTQVTVSS VL: DVVMTQSPVSLPVTLGQPASISCRSSRNLLYSNGNTYLNWFHQRPGQSPRRLIYKVSNQDSGVPDRFSGSGSGTDFTLKISRVEAEDVGVYYCMQGTHWPTTFGQGTRLEIK | 1.17 |

Turning now to a further binder:
Report binding normalized to PSGL-1, nothing else, for this binder: 02G01 (antibody, IgG4, V domains shown) VH: EVQLVQSGAEVKKPGASVKVSCKASGYTFTSYGISWVRQAPGQGLEWMGWISAYNGNTNYAQKLQGRVTMTTDTSTSTAYMELRSLRSDDTAVYYCARVTRLPGGGYAFDIWGQGTMVTVSL VL: QSVLTQPPSASGTPGQRITISCSGSTSNIGNKHVYWYQQFPGAAPKLLIHNTNKRPSGVPDRFSGSKSGTSASLAISGLQSDDEADYYCAAWDGSLSAWVFGGGTKLTVL 0.97
